# System: HOP-92
# experimental details: NCI tumour cell line growth inhibition, 48 h
Active and inactive are the calls of the source. No stated cut-off is given here; in the data, active = GI50 up to about 1.1 µM and inactive = higher.
Labels: active, inactive

compound	target system	answer label
COC(=O)[C@@]12OC[C@]34[C@H]([C@@H](O)[C@@H]1O)[C@@]1(C)CC(=O)C(O)=C(C)[C@@H]1C[C@H]3OC(=O)[C@H](OC(=O)/C=C(\C)C(C)C)[C@@H]24 [BRUCEANTIN]	HOP-92	active
CCCCCC(/C=N/N)C(O)(C(F)(F)F)C(F)(F)F (stereo not drawn)	HOP-92	inactive
CC1(C)O[C@@H](CCl)C[C@H](C#N)O1	HOP-92	inactive
O=C(Oc1c(Cl)cc(C2(c3cc(Cl)c(OC(=O)c4ccccc4)c(Cl)c3)CCCCC2)cc1Cl)c1ccccc1	HOP-92	inactive
C/C(=C\C(C[C@](C)(O)C(O)CCC#C[Si](C)(C)C)S(=O)(=O)c1ccccc1)CC/C=C/CO[Si](C)(C)C(C)(C)C (stereo partly drawn)	HOP-92	inactive
Cc1cc(NC(=O)NC(=O)c2ccccc2NC(=O)C(C)N)ccc1Oc1ncc(Br)cn1 (stereo not drawn)	HOP-92	inactive
Cn1c(=O)c2c(-c3ccccc3)onc2n(C)c1=O	HOP-92	inactive
COc1cc2c(cc1OCCCN1C(=O)c3cccc4cccc(c34)C1=O)N=C[C@@H]1CCCN1C2=O	HOP-92	inactive
CC(C)c1c(O)c(O)c2c(c1O)C(=O)C(O)=C1C(C)(C)CCC[C@@]12C	HOP-92	inactive
CC(O)c1cc2c(s1)C(=O)c1ccsc1C2=O (stereo not drawn)	HOP-92	active
N[C@H]1CCN(c2c(F)cc3c(=O)c(C(=O)O)cn4c3c2Oc2cc3c(ccc5ccccc53)cc2-4)C1	HOP-92	inactive
COc1ccc(Nc2nc3ccc(C(F)(F)F)cc3nc2-c2ccccc2)cc1OC	HOP-92	active
Cc1ccc(OCC2=NN3C(=O)/C(=C\c4ccc([N+](=O)[O-])o4)SC3N2)cc1 (stereo not drawn)	HOP-92	inactive
O=C1Cc2c([nH]c3ccc([N+](=O)[O-])cc23)-c2ccccc2N1	HOP-92	inactive
O=C(CCN1CCCCC1)C(=Cc1ccccc1)C(=O)CCN1CCCCC1	HOP-92	inactive
CC(C)[Si](OC/C(=C/COC(C)(C)C)[C@H]1CC=C(C(=O)c2ccccc2N2CN(C)C(=O)N(C)C2)C1)(C(C)C)C(C)C	HOP-92	inactive
COc1ccc(C(Cl)=C(c2ccc(OCCN(C)C)cc2)c2ccc(OCCN(C)C)cc2)cc1	HOP-92	inactive
C/C=C(\N=C=S)C(=O)OC1C(COC(C)=O)OC([C@]2(O)CC(=O)C(N)=C(C(=O)O)C2=O)C(O)C1OC1CC(OC)C(O)([C@@H](C)OC(=O)[C@@H](C)CC)C(C)O1 (stereo partly drawn)	HOP-92	inactive
CN1C(=O)C2(Cc3cn(C45CC67SSC(CO)(C(=O)N6C4Nc4ccccc45)N(C)C7=O)c4ccccc34)SSC1(CO)C(=O)N2C (stereo not drawn)	HOP-92	active
Clc1cccc(Cl)c1C1SCc2nc3ccccc3n21 (stereo not drawn)	HOP-92	inactive
CC(O)c1cc2c(s1)C(=O)c1c(C(C)O)csc1C2=O (stereo not drawn)	HOP-92	active
CC(C)(C)c1ccc(-c2nnc(-c3cc(C#N)cc(-c4nnc(-c5ccc(C(C)(C)C)cc5)o4)c3)o2)cc1	HOP-92	inactive
CCN(CC)C(=S)SC1CCOP(=O)(N(CCCl)CCCl)N1C (stereo not drawn)	HOP-92	inactive
CN(C)c1ccc(/C=C/c2cc(-c3ccccc3)[n+](C)n2-c2ccccc2)cc1	HOP-92	active
CCN(CC)CC1CCCCN1CC(=O)N1c2cc(Cl)ccc2NC(=O)CC1C (stereo not drawn)	HOP-92	inactive
COc1cc(/C=C2\N=C(c3ccccc3)N(c3nc4ccc(Sc5ccccc5)cc4[nH]3)C2=O)ccc1O	HOP-92	inactive
COc1cc2c(c(N)c1OC)C(=O)/C(=C/c1cc(C)c(O)c(C)c1)C2	HOP-92	inactive
O=Cc1cn(CCCCCCCCCCCCn2cc(C=O)c3ccccc32)c2ccccc12	HOP-92	inactive
CCOC(=O)c1csc(NC(=O)CN2CCN(c3ccccc3)CC2)n1	HOP-92	inactive
Cc1ccc(/N=C2\N=C(N3CC(C)OC(C)C3)c3ccccc32)cc1 (stereo not drawn)	HOP-92	inactive
Cn1c(=O)c2nc(NCCO)cnc2n(C)c1=O	HOP-92	inactive
Nc1c(C(=O)N/N=C/c2ccccc2)sc(=S)n1-c1ccccc1	HOP-92	inactive
Cc1sc2nc3n(sc4nc5sc(C)c(C)c5c(=O)n43)c(=O)c2c1C	HOP-92	inactive
Cc1nc(Cl)c2sc(=S)n(-c3ccc(F)cc3)c2n1	HOP-92	inactive
NC(CCCC(N)P(=O)(O)O)C(=O)O (stereo not drawn)	HOP-92	inactive
N#C/C(=C\c1cc(OCc2ccccc2)c(OCc2ccccc2)cn1)C(N)=O	HOP-92	inactive
CN(C)c1ccc(/C=C(/C(=O)O)c2csc(-c3nc(/C(=C\c4ccc(N(C)C)cc4)C(=O)O)cs3)n2)cc1	HOP-92	inactive
COc1ccc2cc(CN3CCC(C4CCNCC4)CC3)ccc2c1	HOP-92	inactive
